# Tested on: RPMI-8226
# ASSAY NAME: NCI tumour cell line growth inhibition, 48 h
Activity calls are given as the source filed them. No stated cut-off is given here; in the data, active = GI50 up to about 1.1 µM and inactive = higher.
Bench note: report the call from True for active, False for inactive

CC(=O)NNc1nc(C)c(C(/C=C/c2ccc(Cl)cc2)=N/NC(=S)NN)s1    False
Cc1nc(Nc2ccccc2Cl)sc1C(=O)CC(=O)C(=O)Nc1c(Cl)cccc1Cl    False
N/C(=N\N=C\c1c[nH]c2ccccc12)Nc1ccccc1    True
O=CCCn1[nH]c(=O)ccc1=O    False
NC(=O)c1ccccc1NC(=O)C(=O)C(C(=O)c1ccc2ccccc2c1)C1OC(=O)c2ccccc21 (stereo unspecified)    False

Given CC(=O)C1=CSC2[C@H](NC(=O)Cc3ccccc3)C(=O)N2C1C(=O)OC(c1ccccc1)c1ccccc1 (stereo partly specified) , state the outcome it received in this test.
False

Outcome logged for C=C1CC/C=C(/C(=O)O)CC[C@H]2[C@@H]1CC2(C)C in this assay:
False

Just curious, what result did O=C(Nc1ccccc1C(=O)O)/C(=C/c1ccccc1)NC(=O)c1ccccc1 get here?
False

----------
# Test system: COLO 205
# ASSAY NAME: NCI tumour cell line growth inhibition, 48 h
Calls of active or inactive are those of the source. Cut-off read from the data, not from the text of the source: active = GI50 up to about 1.1 µM and inactive = higher.
Consider the following compounds and their measured GI50 readings.

Completed entries (count: 5):
O=C1C2C=CC1C1C(=O)OC(=O)C21 (stereo unspecified)    > 100 µM (inactive)
CC(=O)NNc1nc(C)c(C(/C=C/c2ccc(Cl)cc2)=N/NC(=S)NN)s1    > 100 µM (inactive)
Cc1nc(Nc2ccc([N+](=O)[O-])cc2)sc1C(=O)/C=C/c1ccc(N(C)C)cc1    > 100 µM (inactive)
CC(=O)O[C@H]1C[C@@H](OC(C)=O)[C@@](C)(O)[C@@H]2[C@@H](OC(C)=O)[C@@]3(O)[C@H](/C=C(/CO)[C@H]4O[C@H]4[C@@H](OC(C)=O)[C@@]12C)OC(=O)[C@@H]3C    9.35 µM (inactive)
CCOP(=O)(/C=C\n1ccc(=O)[nH]c1=O)OCC    > 100 µM (inactive)

GI50 in this record for Cc1cc2c(cc1C)[n+]([O-])c(C(=O)/C=C/c1ccc(Cl)cc1)c(C)[n+]2[O-] : 20.5 µM (inactive)

Given item O=C1C=CC(=NNc2ccccc2)C=CC1=O , the value recorded as its GI50 is 13.5 µM (inactive)

Value of GI50 reported for the compound COc1cc2nc(-c3cccs3)nc(Cl)c2cc1OC is > 100 µM (inactive)

GI50 for Cc1ccc(C(=C2Sc3ccccc3S2)C(=C2Sc3ccccc3S2)c2ccc(C)s2)s1 is > 100 µM (inactive)

Query Cc1ccc(N2C[N+](c3ccccc3)=NC(c3ccccc3)=N2)cc1 yields GI50 of 31.8 µM (inactive)

Reported GI50 ( CC1=NN(C(=O)c2ccccc2O)C(=O)/C1=C/c1cccc([N+](=O)[O-])c1 ) = 29 µM (inactive)

The recorded GI50 for entry COC(=O)N1C2C(C[C@@]1(C)C(=O)OC)c1ccccc1N2S(=O)(=O)c1ccccc1 (stereo partly specified) equals > 100 µM (inactive)

Recorded result, O=C(c1ccccc1)c1ccc2[nH]c(-c3c(Cl)c(Cl)c(Cl)c(Cl)c3C(=O)N/N=C/c3cccc(Oc4ccccc4)c3)nc2c1 , GI50: > 100 µM (inactive)

----------
# Test system: ACHN
# ASSAY NAME: NCI tumour cell line growth inhibition, 48 h
Calls of active or inactive are those of the source. No stated cut-off is given here; in the data, active = GI50 up to about 1.1 µM and inactive = higher.
Parameter call: string, one of active, inactive

N#CC1C(=O)NC23CCCCC2C1c1ccccc1O3 (stereo not drawn)    inactive
COC(=O)c1ccccc1NC(=S)NN(C)C    inactive

Could you please tell me the result logged for O=[N+]([O-])c1cccc2nc3ccccc3c(NCCCN3CCOCC3)c12 in this assay?
active

Just curious, what result did CC(=O)OC1CCCn2c1nc1c2C(=O)C(C)=C(N2CC2)C1=O (stereo not drawn) get here?
active

Tell me the recorded outcome of this test for COC1C2C[C@@H](O)CCC2C(C(=O)OCCl)C[C@H]1O (stereo partly drawn) .
inactive

I'd appreciate the recorded outcome for Nc1n[nH]c(CCCCCCCc2nnc(N)[nH]2)n1 from this test.
inactive

What call does the record list for OC1COC2CC(Nc3ccccn3)OC12 (stereo not drawn) ?
inactive

Kindly provide the recorded test outcome for the following compound: COC(=O)C1Cc2c([nH]c3ccccc23)-c2[nH]c3ccccc3c2CC(NC(C)=O)C(=O)N2CCCC2C(=O)N1 (stereo not drawn)
inactive

Please indicate how the test categorized CC(C)c1ccc2c(c1)CCC1C(C)(C)[C@@H](O)CC[C@]21C (stereo partly drawn) .
inactive

What did the test return for CCCCCCCC(=O)N/N=C/c1ccc(Sc2nccn2C)c([N+](=O)[O-])c1 ?
inactive

# lookup: test call for Cc1ccc2cccc3c2c1CC1(C3=O)S(=O)(=O)OCCOS1(=O)=O
inactive

What classification did COc1cccc2c1C(=O)C1(O)CCCCC21 (stereo not drawn) end up with in this test?
inactive

How did this test come out for CCN1CCC(C)OP1(=O)Cc1ccccc1 (stereo not drawn) ?
inactive

----------
# Test system: HT-29
# ASSAY NAME: NCI tumour cell line growth inhibition, 48 h
Calls of active or inactive are those of the source. Rule as the data show it: active = GI50 up to about 1.1 µM and inactive = higher.
Response enum: T (active), F (inactive)

Could you kindly confirm the outcome this assay logged for NC(=O)N1N=C2c3ccccc3SC[C@H]2[C@@H]1c1ccccc1 ?
F

// outcome(item) with item = CCCC(=O)OCOC(=O)N(C)/N=N/c1ccc(C(=O)OCC)cc1
F

Please share the test call associated with COc1ccc(C(C)NNC(=O)c2ccncc2)c(OC)c1 (stereo not given) .
F

Could you check what this test reported for O=c1[nH]c(-c2ccccc2)nc2cc([N+](=O)[O-])c(/C(Cl)=C/c3ccccc3)cc12 ?
F

// outcome(item) with item = CC(=O)OC1=C2CC3(C)OC(=O)CC(C)(C)C3=CC=C2C=C(C(C)C)C1=O (stereo not given)
T

----------
The following compounds are listed with their measured GI50 values.
# System: K562
# ASSAY NAME: NCI tumour cell line growth inhibition, 48 h
Active and inactive are the calls of the source. No stated cut-off is given here; in the data, active = GI50 up to about 1.1 µM and inactive = higher.

For record Cc1c(Cl)ccc2c1NC(=O)C2(O)C1Cc2ccccc2C1=O (configuration not stated) the listed GI50 is 62.1 µM (inactive)

# GI50 (compound: O=C(Nc1ccccc1Br)c1cccc([N+](=O)[O-])c1O ) is 3.13 µM (inactive)

Form field GI50, entry CCCC(=O)OCOC(=O)N(C)/N=N/c1ccc(C(=O)OCC)cc1 : 47.6 µM (inactive)

Value of measured GI50 for the entry CC1(C)CC(=O)C(C(=O)C(=O)NC2=C(Cl)C(=O)c3ccccc3C2=O)C(=O)C1 : 32 µM (inactive)

get_value(item= CCOC(=O)NC(=O)c1cn(CC(=O)NCC(=O)NCC(=O)N2CCN(CCn3c(C)nc(C(N)=O)c3N)CC2)c(=O)[nH]c1=O , readout=GI50) returns > 100 µM (inactive)

Form field GI50, entry O=C1Nc2ccccc2/C1=C\c1c(-c2ccccc2)nc2n1CCS2 : 19.5 µM (inactive)

Item: CN(C)c1ccc(/C=C/C(=O)c2ccc(O)cc2)cc1 | GI50: 1.7 µM (inactive)

Sample O=C(c1ccccc1)c1ccc(COc2ccc(C(c3c(O)c4ccccc4oc3=O)c3c(O)c4ccccc4oc3=O)cc2)cc1 ; GI50 observed: 19.9 µM (inactive)

----------
GI50 for assorted compounds
# System: UACC-257
# ASSAY NAME: NCI tumour cell line growth inhibition, 48 h
Activity calls are given as the source filed them. Cut-off read from the data, not from the text of the source: active = GI50 up to about 1.1 µM and inactive = higher.

COC1=CC(=C(C#N)/C(=N\c2ccccc2)SC)C=C(OC)C1=O    56.6 µM (inactive)

The measured GI50 associated with CN1N=C(c2ccccc2)C(C(c2ccccc2[N+](=O)[O-])C2C(=O)N(C)N=C2c2ccccc2)C1=O (configuration not stated) reads > 71.4 µM (inactive)

Noted for CCCO/S(=N\S(=O)(=O)c1ccccc1)c1ccccc1[N+](=O)[O-] (configuration not stated) : its GI50 reads > 100 µM (inactive)

Summary for this compound, COC(=O)[C@]12CC[C@H]3CN(C(=O)OCc4ccccc4)[C@H]([C@H]31)[C@H](c1ccco1)N2S(=O)(=O)c1ccc(C)cc1 : GI50 is 20.3 µM (inactive)

Reported GI50 for CCN1CCC(C)OP1(=O)Cc1ccccc1 (configuration not stated) was > 100 µM (inactive)

GI50 reading for Cc1cc2ccccc2n2c1nc1ccc(O)cc12 : > 10 µM (inactive)

For record COc1c(-c2nc3ccc(N4CCN(C)CC4)nc3[nH]2)cc(OC)c2[nH]c(CO)nc12 the listed GI50 is > 100 µM (inactive)

----------
# Test system: Malme-3M
# ASSAY NAME: NCI tumour cell line growth inhibition, 48 h
The source made the active and inactive calls. No stated cut-off is given here; in the data, active = GI50 up to about 1.1 µM and inactive = higher.
# key: entry, value: GI50

In the examples that follow, each entry is paired with its recorded GI50.
C1CSCCCSCCCSCCCSCCCSC1    33.3 µM (inactive)
CC1=C(/C=C/C(C)=C/C=C/C(C)=C/C(=O)Nc2ccc(O)cc2)C(C)(C)CCC1 [FENRETINIDE]    4.94 µM (inactive)
CCOC(=O)N1CCC(=O)C[C@@H]1C/C=C/P1(=O)O[C@H](c2ccccc2)C(C)N1C(C)C (some centres undefined)    > 100 µM (inactive)

Now turn to the next compound.
For this compound ( CCSc1c2ccccc2c(-c2nc(F)nc(F)n2)n1CCc1ccccc1 ), measured GI50 is > 100 µM (inactive)

Recorded values, source ChEMBL document CHEMBL1201862.
